# protocolDescription: total protein half-life in vivo (active degradation + dilution); higher = more stable protein
# testParameters: wild type E. coli NCM3722; growth: P-lim chemostat; doubling time 6 h
observationType: total protein half-life in vivo (h)

[
  {
    "orderedResidues": "MSKKIVLALGGNALGDDLAGQMKAVKITSQAIVDLIAQGHEVIVTHGNGPQVGMINQAFEAAAKTEAHSPMLPMSVCVALSQGYIGYDLQNALREELLSRGINKPVATLVTQVEVDANDPAFLNPTKPIGSFFTEQEAEQLTKQGYTLKEDAGRGYRRVVASPKPVDIIEKETVKALVDAGQVVITVGGGGIPVIREGNHLRGASAVIDKDWASARLAEMIDADMLIILTAVEKVAINFGKENEQWLDRLSLSDAERFIEEGHFAKGSMLPKVEAAASFARSRAGREALITVLSKAKEGIEGKTGTVICQ",
    "observationType": "total protein half-life in vivo",
    "experimentalValue": 3.03
  },
  {
    "orderedResidues": "MSIKTIKYFSTIIVAVVAVLAGWWLWNYYMQSPWTRDGKIRAEQVSITPQVSGRIVELNIKDNQLVNAGDLLLTIDKTPFQIAELNAQAQLAKAQSDLAKANNEANRRRHLSQNFISAEELDTANLNVKAMQASVDAAQATLKQAQWQLAQTEIRAPVSGWVTNLTTRIGDYADTGKPLFALVDSHSFYVIGYFEETKLRHIREGAPAQITLYSDNKTLQGHVSSIGRAIYDQSVESDSSLIPDVKPNVPWVRLAQRVPVRFALDKVPGDVTLVSGTTCSIAVGQ",
    "observationType": "total protein half-life in vivo",
    "experimentalValue": 6.58
  }
]

* * *

# protocolDescription: total protein half-life in vivo (active degradation + dilution); higher = more stable protein
# testParameters: wild type E. coli NCM3722; growth: P-lim chemostat; doubling time 6 h
Readings of total protein half-life in vivo for the listed sequences

[
  {
    "orderedResidues": "MKNKLPPFIEIYRALIATPSISATEEALDQSNADLITLLADWFKDLGFNVEVQPVPGTRNKFNMLASIGQGAGGLLLAGHTDTVPFDDGRWTRDPFTLTEHDGKLYGLGTADMKGFFAFILDALRDVDVTKLKKPLYILATADEETSMAGARYFAETTALRPDCAIIGEPTSLQPVRAHKGHISNAIRIQGQSGHSSDPARGVNAIELMHDAIGHILQLRDNLKERYHYEAFTVPYPTLNLGHIHGGDASNRICACCELHMDIRPLPGMTLNELNGLLNDALAPVSERWPGRLTVDELHPPIPGYECPPNHQLVEVVEKLLGAKTEVVNYCTEAPFIQTLCPTLVLGPGSINQAHQPDEYLETRFIKPTRELITQVIHHFCWH",
    "total protein half-life in vivo (h)": 5.95
  },
  {
    "orderedResidues": "MPWIQLKLNTTGANAEDLSDALMEAGAVSITFQDTHDTPVFEPLPGETRLWGDTDVIGLFDAETDMNDVVAILENHPLLGAGFAHKIEQLEDKDWEREWMDNFHPMRFGERLWICPSWRDVPDENAVNVMLDPGLAFGTGTHPTTSLCLQWLDSLDLTGKTVIDFGCGSGILAIAALKLGAAKAIGIDIDPQAIQASRDNAERNGVSDRLELYLPKDQPEEMKADVVVANILAGPLRELAPLISVLPVSGGLLGLSGILASQAESVCEAYADSFALDPVVEKEEWCRITGRKN [P0A8T1]",
    "total protein half-life in vivo (h)": 5.37
  }
]

* * *

# protocolDescription: total protein half-life in vivo (active degradation + dilution); higher = more stable protein
# testParameters: wild type E. coli NCM3722; growth: N-lim chemostat; doubling time 12 h
observationType: total protein half-life in vivo (h)

[
  {
    "orderedResidues": "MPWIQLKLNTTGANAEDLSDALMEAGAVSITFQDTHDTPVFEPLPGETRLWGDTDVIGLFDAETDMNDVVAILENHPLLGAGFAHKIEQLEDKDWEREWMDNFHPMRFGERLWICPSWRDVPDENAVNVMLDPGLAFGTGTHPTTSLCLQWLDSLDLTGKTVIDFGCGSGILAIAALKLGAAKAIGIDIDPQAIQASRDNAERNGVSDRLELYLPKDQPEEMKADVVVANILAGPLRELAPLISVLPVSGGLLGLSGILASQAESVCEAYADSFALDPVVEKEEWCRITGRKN [P0A8T1]",
    "observationType": "total protein half-life in vivo",
    "experimentalValue": 6.89
  },
  {
    "orderedResidues": "MSTTNHDHHIYVLMGVSGSGKSAVASEVAHQLHAAFLDGDFLHPRRNIEKMASGEPLNDDDRKPWLQALNDAAFAMQRTNKVSLIVCSALKKHYRDLLREGNPNLSFIYLKGDFDVIESRLKARKGHFFKTQMLVTQFETLQEPGADETDVLVVDIDQPLEGVVASTIEVIKKGK",
    "observationType": "total protein half-life in vivo",
    "experimentalValue": 6.38
  },
  {
    "orderedResidues": "MMLSKKNSETLENFSEKLEVEGRSLWQDARRRFMHNRAAVASLIVLVLIALFVILAPMLSQFAYDDTDWAMMSSAPDMESGHYFGTDSSGRDLLVRVAIGGRISLMVGVAAALVAVVVGTLYGSLSGYLGGKVDSVMMRLLEILNSFPFMFFVILLVTFFGQNILLIFVAIGMVSWLDMARIVRGQTLSLKRKEFIEAAQVGGVSTSGIVIRHIVPNVLGVVVVYASLLVPSMILFESFLSFLGLGTQEPLSSWGALLSDGANSMEVSPWLLLFPAGFLVVTLFCFNFIGDGLRDALDPKDR [P0AFH6]",
    "observationType": "total protein half-life in vivo",
    "experimentalValue": 8.49
  }
]

* * *

# protocolDescription: total protein half-life in vivo (active degradation + dilution); higher = more stable protein
# testParameters: E. coli NCM3722 delta-smpB; growth: N-lim chemostat; doubling time 6 h
observationType: total protein half-life in vivo (h)

[
  {
    "orderedResidues": "MNIRDLEYLVALAEHRHFRRAADSCHVSQPTLSGQIRKLEDELGVMLLERTSRKVLFTQAGMLLVDQARTVLREVKVLKEMASQQGETMSGPLHIGLIPTVGPYLLPHIIPMLHQTFPKLEMYLHEAQTHQLLAQLDSGKLDCVILALVKESEAFIEVPLFDEPMLLAIYEDHPWANRECVPMADLAGEKLLMLEDGHCLRDQAMGFCFEAGADEDTHFRATSLETLRNMVAAGSGITLLPALAVPPERKRDGVVYLPCIKPEPRRTIGLVYRPGSPLRSRYEQLAEAIRARMDGHFDKVLKQAV [P0ACQ4]",
    "experimentalValue": 4.11
  },
  {
    "orderedResidues": "MVSRRVQALLDQLRAQGIQDEQVLNALAAVPREKFVDEAFEQKAWDNIALPIGQGQTISQPYMVARMTELLELTPQSRVLEIGTGSGYQTAILAHLVQHVCSVERIKGLQWQARRRLKNLDLHNVSTRHGDGWQGWQARAPFDAIIVTAAPPEIPTALMTQLDEGGILVLPVGEEHQYLKRVRRRGGEFIIDTVEAVRFVPLVKGELA [P0A7A5]",
    "experimentalValue": 3.64
  },
  {
    "orderedResidues": "MIEWQDLHHSELSVSQLYALLQLRCAVFVVEQNCPYQDIDGDDLTGDNRHILGWKNDELVAYARILKSDDDLEPVVIGRVIVSEALRGEKVGQQLMSKTLETCTHHWPDKPVYLGAQAHLQNFYQSFGFIPVTEVYEEDGIPHIGMAREVIQA [P0AEH3]",
    "experimentalValue": 2.23
  }
]

* * *

# protocolDescription: total protein half-life in vivo (active degradation + dilution); higher = more stable protein
# testParameters: wild type E. coli NCM3722; growth: P-lim chemostat; doubling time 12 h

[
  {
    "orderedResidues": "MSEGWNIAVLGATGAVGEALLETLAERQFPVGEIYALARNESAGEQLRFGGKTITVQDAAEFDWTQAQLAFFVAGKEATAAWVEEATNSGCLVIDSSGLFALEPDVPLVVPEVNPFVLTDYRNRNVIAVPDSLTSQLLAALKPLIDQGGLSRISVTSLISASAQGKKAVDALAGQSAKLLNGIPIDEEDFFGRQLAFNMLPLLPDSEGSVREERRIVDEVRKILQDEGLMISASVVQAPVFYGHAQMVNFEALRPLAAEEARDAFVQGEDIVLSEENEFPTQVGDASGTPHLSVGCVRNDYGMPEQVQFWSVADNVRFGGALMAVKIAEKLVQEYLY",
    "total protein half-life in vivo": "11.9 h"
  },
  {
    "orderedResidues": "MKRLRNKMTTEELAECLGVAKQTVNRWIREKGWKTEKFPGVKGGRARLILVDTQVCEFIQNTPAFHNTPMLMEAEERIAEYAPGARAPAYRQIINAIDNMTDIEQEKVAQFLSREGIRNFLARLDIDESA",
    "total protein half-life in vivo": "4.26 h"
  },
  {
    "orderedResidues": "MSLINTKIKPFKNQAFKNGEFIEITEKDTEGRWSVFFFYPADFTFVCPTELGDVADHYEELQKLGVDVYAVSTDTHFTHKAWHSSSETIAKIKYAMIGDPTGALTRNFDNMREDEGLADRATFVVDPQGIIQAIEVTAEGIGRDASDLLRKIKAAQYVASHPGEVCPAKWKEGEATLAPSLDLVGKI [P0AE08]",
    "total protein half-life in vivo": "9.52 h"
  }
]
